The measured values listed here are drawn from patent US8450317B2.

Measured pIC50, listed per entry for reference.
Molecular target: CXCR3 (Macaca fascicularis, UniProt A0A2K5UV19)
Sequence (A0A2K5UV19 entry or part of it): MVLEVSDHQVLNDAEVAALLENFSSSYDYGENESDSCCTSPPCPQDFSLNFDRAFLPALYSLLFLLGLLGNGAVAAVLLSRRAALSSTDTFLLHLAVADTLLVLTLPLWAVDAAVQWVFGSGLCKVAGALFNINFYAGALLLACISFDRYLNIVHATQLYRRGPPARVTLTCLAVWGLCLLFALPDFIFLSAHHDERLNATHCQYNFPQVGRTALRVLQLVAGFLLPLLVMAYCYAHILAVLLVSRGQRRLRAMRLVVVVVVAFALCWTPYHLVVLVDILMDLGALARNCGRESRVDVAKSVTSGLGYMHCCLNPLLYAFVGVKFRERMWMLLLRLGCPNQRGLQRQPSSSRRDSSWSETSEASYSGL
Assay: functional cellular assay measuring calcium flux in CXCR3 transfected cells (block of CXCR3/IP-10 interaction)
Type: cell-based, Cyno
Conditions: IP-10 induced intracellular calcium flux; Cyno-CHO cells stably expressing recombinant CXCR3 and G-alpha-16; IP-10 at EC80; read-out: IC50
Protocol: Compounds are assessed for the ability to block the interaction of CXCR3 and IP-10 in a functional cellular assay measuring calcium flux in CXCR3 transfected cells. […] Test compounds are dissolved in DMSO and diluted to 1.045 mM in DMSO. […] Intracellular calcium flux is recorded on the HAMAMTSU FDSS6000, using excitation at 480 nm and emission at 540 nm. Data are analyzed using Activity Base software. […]
# reply with the number alone; pIC50 is -log10 of concentration in mol/L

Worked examples follow.
>>> measurement("C[C@@H]1CN(c2ncc(-c3ccccc3N3CCN(C(=O)Cn4ccc5cccnc54)CC3)cn2)C[C@@H](C)O1")
8.15
>>> measurement("Cc1cc(C)n(CC(=O)N2CCN(c3ccc(C(F)(F)F)cc3-c3cnc(N4CCC(O)CC4)nc3)CC2C)n1 (centres unmarked)")
8.10
>>> measurement("Cc1cc(C)n(CC(=O)N2CCN(c3ccccc3-c3cnc(N4C[C@@H]5C[C@H]4CO5)nc3)CC2)n1")
7.85

Prompt line: For the molecule `COc1cc(NC(=O)c2cc(F)ccc2N2CCN(C(=O)Cn3cnc4cccnc43)[C@@H](C)C2)ccn1` , report pIC50.
Response line: 7.96

Prompt line: For the molecule `Cc1cc(C)n(CC(=O)N2CCN(c3ccccc3-c3cnc(N4CCOCC4)nc3)CC2)n1` , report pIC50.
Response line: 8.05
